The reported numbers originate from ChEMBL document CHEMBL1201862.

# Tested on: PC-3
# experiment-notes: NCI tumour cell line growth inhibition, 48 h
The source made the active and inactive calls. No stated cut-off is given here; in the data, active = GI50 up to about 1.1 µM and inactive = higher.
assay-readout: GI50

Request: GET /values?readout=GI50&item= "COC(=O)C(=O)c1cc2ccccc2n1S(=O)(=O)c1ccccc1"
Result: > 100 µM (inactive)

Request: Value lookup for GI50; key = "N/C(=N\O)N/N=C/c1ccc2c(c1)OCO2"
Result: 26.2 µM (inactive)

Request: Can you share its GI50? I mean this molecule: "Cc1nnc(Nc2ccc(Cl)cc2)o1"
Result: > 10 µM (inactive)

Request: Which GI50 value is on record for "O=C(O)c1ccc(NS(=O)(=O)Cc2ccccc2)cc1" ?
Result: > 100 µM (inactive)

Request: Using the record for "COc1ccc(/C=C(/C)[N+](=O)[O-])cc1" , report its GI50.
Result: 2.16 µM (inactive)

Request: May I ask what GI50 has been recorded for CC1=NN(C(=O)c2ccccc2O)C(c2ccccc2Cl)C1C(=O)Nc1ccccc1 (stereo unspecified) ?
Result: 1.75 µM (inactive)

---

Entries and their GI50 values follow.
# System: MCF7
# experiment-notes: NCI tumour cell line growth inhibition, 48 h
Active and inactive are the calls of the source. No stated cut-off is given here; in the data, active = GI50 up to about 1.1 µM and inactive = higher.

Here are 5 compounds together with their reported answers.
{"columns": ["compound", "meas-value"],
 "data": [
  ["CCOC(=O)C1=C(C)N(c2ccc(Cl)cc2)C2(O)C=CC(=O)C3C(=O)N(c4ccccc4)C(=O)C132 (configuration not stated)", "1.62 µM (inactive)"],
  ["CN(C)C1(N(C)C)Oc2c(c(=O)n(C)c(=O)n2C)C(c2ccccc2)C1(F)F (configuration not stated)", "> 100 µM (inactive)"],
  ["N#C/C(=C/NC(=S)Nc1ccc(S(N)(=O)=O)cc1)C(N)=O", "> 100 µM (inactive)"],
  ["COC(=O)c1cc(C)ccc1C1CN=NC12Cc1c(C)cc(C)cc1C2=O (configuration not stated)", "20.6 µM (inactive)"],
  ["CCOC(=O)c1ccc(NC(=O)O/N=C(/Cl)CCl)cc1", "34.8 µM (inactive)"]
]}

# context switch: different compound, same GI50
Request: Query (compound): "COC(=O)c1c(O)ccc2c1c1c(n2Cc2ccccc2OC)C(=O)c2ccccc2C1" ; field requested: GI50
Result: 23.7 µM (inactive)

---

# Test system: KM-20L2
# experiment-notes: NCI tumour cell line growth inhibition, 48 h
The source made the active and inactive calls. No stated cut-off is given here; in the data, active = GI50 up to about 1.1 µM and inactive = higher.
assay-readout: GI50

Examples with answers:
{"columns": ["compound", "subject-of-test", "GI50"],
 "data": [
  ["COC(=O)C1=C(C(=O)OC)N(C(C)C)[C@H]2C(C(=O)OC)=C(C(=O)OC)N(C(C)C)[C@@H]12", "KM-20L2", "> 100 µM (inactive)"],
  ["OC(c1ccccn1)C1CNc2ccccc21 (stereo not given)", "KM-20L2", "> 100 µM (inactive)"],
  ["COC1CC(OC)C2OC(c3ccccc3)OCC2O1 (stereo not given)", "KM-20L2", "> 100 µM (inactive)"],
  ["O=C(NC12CC3CC(CC(C3)C1)C2)C(=O)c1c[nH]c2ccc(Cl)cc12", "KM-20L2", "5.73 µM (inactive)"],
  ["CCOc1ccccc1N1C(=O)C(=O)C(c2nc3ccccc3o2)C(=O)C1=O", "KM-20L2", "> 100 µM (inactive)"]
]}

Request: // returns reported GI50 for input "CC(=O)NNc1nc(C)c(C(/C=C/c2ccc(/C=C/C(=N\NC(=O)c3ccncc3)c3sc(NNC(C)=O)nc3C)cc2)=N/NC(=O)c2ccncc2)s1"
Result: > 100 µM (inactive)

Request: Query (compound): CC(C(=O)n1c2ccccc2c2ccccc21)N(c1ccccc1)c1ccccc1 (stereo not given) ; field requested: GI50
Result: 18.9 µM (inactive)

Request: Consider the compound shown here: "COC(=O)c1cc(C)n(NC(=O)OC(C)(C)C)c1C" What is its recorded GI50?
Result: > 100 µM (inactive)

Request: // GI50 lookup, key: COc1ccccc1C(N)c1ccccc1 (stereo not given)
Result: > 100 µM (inactive)

Request: Fill blank: measured GI50 of the compound COC(=O)C(CC(C)=O)CS(=O)(=O)CC(=O)C(=O)Nc1cccc([N+](=O)[O-])c1 (stereo not given) is ____.
Result: > 100 µM (inactive)
